Test system: phospho-ERK in SW620 (KRAS-G12V) cells
Experiment summary: pERK In Cell Western (ICW) assay (Method B), SW620
Assay type: cell-based
Conditions used: Homo sapiens, SW-620, 3 h, Table 4
Listed next: entries and their corresponding IC50.

# example entries with known answers
>>> result("N#Cc1c(N)sc2c1C1(CC2)CN(c2nc(OC[C@@]34CCCN3C[C@H](F)C4)nc(N3CCCCC3C(N)=O)n2)C1 (stereo partly drawn)")
"≥ 20000 nM"
>>> result("CC1(C#N)CCCN(c2nc(OCC3(CN4CCOCC4)CC3)nc(N3CC4(CCc5sc(N)c(C#N)c54)C3)n2)C1 (stereo not drawn)")
"1000 to 20000 nM"

Now consider the entry below.
May I ask what IC50 has been recorded for `N#CCN(c1nc(OC[C@@]23CCCN2C[C@H](F)C3)nc(N2CC3(C2)SCc2sc(N)c(C#N)c23)n1)C1(C#N)CC1` ?
10 to 100 nM
